- PROCEDURE SUMMARY: Solubility of lasalocid in various solvents and milk
- Format: physicochemical
- TEST CONTEXT: DMSO, organic solvent or mixture, thermodynamic from solid
PROPERTY LABEL: solubility at 24 h (mg/mL)
API: value field is a number in mg/mL; no unit string.

Item under review: `CC[C@@H](C(=O)[C@@H](C)[C@@H](O)[C@H](C)CCc1ccc(C)c(O)c1C(=O)O)[C@H]1O[C@](CC)([C@H]2CC[C@](O)(CC)[C@H](C)O2)C[C@@H]1C` . Reported solubility at 24 h?
298

###

- PROCEDURE SUMMARY: Solubility of lasalocid in various solvents and milk
- Format: physicochemical
- TEST CONTEXT: MilliQ water, water, thermodynamic from solid
PROPERTY LABEL: solubility at 24 h (µg/mL)
API: value field is a number in µg/mL; no unit string.

Item under review: CC[C@@H](C(=O)[C@@H](C)[C@@H](O)[C@H](C)CCc1ccc(C)c(O)c1C(=O)O)[C@H]1O[C@](CC)([C@H]2CC[C@](O)(CC)[C@H](C)O2)C[C@@H]1C [lasalocid] . Reported solubility at 24 h?
750
